Each recorded value in this set is attributed to the nanobody polyreactivity screen of Harvey et al. (2022).

Assay: yeast display, Sf9 membrane polyspecificity reagent, FACS + sequencing; frameworks hold sequencing errors
Experimental Endpoint: polyreactivity (PSR sort gate)

Reference set (4 entries):
| Polymer Sequence | polyreactivity (PSR sort gate) |
| --- | --- |
| QVQLVESGGGLVQAGASLRLSCAASGFIFGGNAMGWYRQAPGKERELVAAISTTGGRTYYADSVKGRFTISRDNAKNTVYLQMNSRKPEDTAVYYCNAGYDSYCRYYWYWYSFNYWGQGTQVNVSS | high polyreactivity |
| QVQLVESGGGLVQAGGSLRLSCAASGRTFKYNAMGWYRQAPGKERELVAVIRYSGGTTYYADSVKGRFTISRDNAKNTVYLQMNSLKPEDTAVYYCNADGPYVLPGWYFRTDNSWGQGTQVTVSS | low polyreactivity |
| QVQLVESGGGLVQEGGSLRLSCAASGRTFSRYVMGWYRQAPGKERELVAAIRGSGGGTYYADSVKGRFTISRDNAKNTVYLQMNSLKPEDTAVYYCNVVRSTVLYDYWGQGTQVTVSS | high polyreactivity |
| QVQLVESGGGLVQEGGSLGLSCAASGRIFIPYAMGWYRQETGKEREFVATIRWRGGRTYYADSVKGRFTISRDNAKNTVYLQLYSLKPEDTAVYYCAARSNALFRFDYWGQGTQVSVSS | high polyreactivity |

Now take the following sequence into account.
Form field: reported polyreactivity (PSR sort gate) of QVQLVESGGGLVQAGGSLRLSCAAYGRTITYYAMGGYRQSPGKERELVAAIPWSGGSTYYADSVKGRFTISRDNAKNTVYLQMNSLKPEDTAVYYCSADSYIYSVNYWGQGTQLTVSS low polyreactivity

====

Assay: yeast display, Sf9 membrane polyspecificity reagent, FACS + sequencing; frameworks hold sequencing errors
Experimental Endpoint: polyreactivity (PSR sort gate)

| Polymer Sequence | polyreactivity (PSR sort gate) |
| --- | --- |
| QVQLVESGGGLVQAGGSLRLSCAASGITFSGNAKGWYRQAPGKERELDAAITFSGGITYYADSVKGRFTISRDNAKNTVFLQMNSLKPEDTAVYYSATDPIGGWTRPQRYGDDYWGQGTQVTVSS | low polyreactivity |
| QVQLVESAGGLVQAGGSLRLSCAASGRTSDGYAMGWSRQAPGKERELVAGITEGGGDTYYADSVKGRFTISRDNAKNTVYLQMNSLKTEDTAVYYCAKDLRRYLSWWYRYPYDYWGQGTQVTVSS | low polyreactivity |
| QVQLVESGGGLVQAGGSLRLSCDASGSTFYPNAMGWYRQAPWKERELVAAITTSGGSTYYADSVKGRFTISRDNAKNTVYLQMNSLKPEDTAVYYCAAEVRDRGLEPYGPIYDYWGQGTQVTVSS | high polyreactivity |
| QVQLVESGGGLVQAGGSLRLSCAASGRIFRYYAMGWYRQAPGKESELVAAITASGGSTYYADSVKGRFTISRDNAKNTVYLQMNSLKPEDTAVYYCATEYVVYRSWVPKYGYWGQGTQVTVSS | high polyreactivity |
| QVQLVESGGGLVQAGGSLRLSCAASGGTFSLNAMGWSRQAPGKERELVAAITYSTGRTHYADSVKGRFTISRDNAKNTVYLQMNSLKPEDTAVYYCAARVYGTKMDYWGQGTQVTVSS | high polyreactivity |

Dear colleague, I am looking for the recorded polyreactivity (PSR sort gate) of the following sequence: QVQLVESGGGLDQAGGSLRLSCAASGRTFLVYAMGWYRQAPGKERELVAAISRSGGSTYYADSVMRRFTISRDNAKNNVYLQMNSLIPEDTAVYYCAAKKTGRYYWGQGTEVTVSS high polyreactivity

Give its polyreactivity (PSR sort gate) value. Item: QVQLVESGGGLVQAGGSLRISCAASGNIFDIYAMGWYRQAPGKERELVAAITSGVRTYYADSVKGRFTISRDNAKNTVYLQMNSLKPEDTSVYYCNAVWRRSHAYGYWGQGTQVTVSS low polyreactivity

Return reported polyreactivity (PSR sort gate); argument: QVQLVESGGGLVHAGGRLRLSCAASGRISGYAMAWYRQAPRTERELVAAISTRGGTTYYADSVKGRFTISRDNAKNTVYLQMNSLKPEDTAVYFCNAASSRWPEYDFWGQGTQVTVSS high polyreactivity

For QVQLVESGGGLVQAGGSLRLSCAASGFIFQANPMGWYRPAPGKERELVAAIDDGDSTYADSVKGRFTISRDNAKNTVYLQMNSLKPEDTAVYYCATRRKRSYDYWGHGTQVTVSS , what is its reported polyreactivity (PSR sort gate)? low polyreactivity

Requested field: polyreactivity (PSR sort gate). Item: QVQLVESGGGLVQAGGSLRLSCAASGFTFYRNTMGWYRQAPGKERELVARIRSVGSTYYADSVKGRFTISRDNAKNTVFLQMNSLKREDTAVYYCAAGPVYDWRGGALRYYYWGQGTQVTVSS high polyreactivity

Give the measured polyreactivity (PSR sort gate) of QVQLVESGGGLVQAGGSLRLSCAASGFIFDYYAMGWYRPAPAKERELVAAISCRGGTTYYADSVKGRFTISRDNAKNTVYLQMNSLKPEDTAVYYCAAGRFYGFGYGYWGQGTQVTVSS . high polyreactivity

====

Assay: yeast display, Sf9 membrane polyspecificity reagent, FACS + sequencing; frameworks hold sequencing errors
Experimental Endpoint: polyreactivity (PSR sort gate)

Solved entries:
| Polymer Sequence | Experimental Endpoint | Readout Value |
| --- | --- | --- |
| QVQLVESGGGLVQAGGILRLSCAASGRIFRYYAMGWYRQAPGKERELVAGITRGGTTNYADSVKGRFTISRDNAKNTVYLQMNSLKPEDTAVYYCAAETRRGIIGYDYWGQGTKVTVSS | polyreactivity (PSR sort gate) | high polyreactivity |
| QVQHEESGGGLVQAGGSLRLSCAASGRIFPVNAMGWSRKAPGKERELLAAITRNGGSTYYADSVKGRFTISRDNAKNTVYLQMNSLKPEDTAVSYCAVRVVYGPAWAKMYYWGQGTQVTVSS | polyreactivity (PSR sort gate) | high polyreactivity |
| QVQLVESGGGLVQAGGSLRLSCDASGSISVVNMGWYRQAPGKERELVASNTSSGSTTYADSVKGRFTISRDKAKNTVYLQMNRLKPEDTAVYYCAADVGTDYTYQHPAGAAYDYCGQGTQVTVSS | polyreactivity (PSR sort gate) | low polyreactivity |
| QDQLVESGGGLVQAGGSLRLSCAASGRILAYYAMGWSRQAPGKERELVAAISRAGSTNYADSVKGRFTISRDNAKNTVYLQMNSLKPEDTAVYYCAARPYRRGYNYWGQGTQVTVSS | polyreactivity (PSR sort gate) | high polyreactivity |

Would you kindly look at the next entry?
Please report the recorded polyreactivity (PSR sort gate) for QVQLVESGGGLVQAGGSLRLSCAASGSIFAAYTMGWYRQAPGKERELVAAISVSTVSTYYADSVKGRFTISRDNAKNTVYIQMNSLKPEDTAVYYCNADATDSYPEKDEHDSWGQGTQVTVSS . low polyreactivity

====

Assay: yeast display, Sf9 membrane polyspecificity reagent, FACS + sequencing; frameworks hold sequencing errors

| Polymer Sequence | polyreactivity (PSR sort gate) |
| --- | --- |
| QVQLVESGGGLVQAGGSLRLSCAASGSTFGGNAMGWYRQAPGKERELVAAISSSGGSTYYADSVKGRFTISRDNAKYTVYLQMNSLKPEDSAVYYCAALYHWTYDYWGLGTQVTVSS | low polyreactivity |
| QVHLVESGGGLVQAGGSLRLSCAASGGTFYYNTMGWSRQAPGKERELVAAITSGTSTNYADSVKGRFTISRDNAKNTVYLQMNSRIQEDTAVFDCAADPDADDPRRGYDYWGQGTQVTVSS | low polyreactivity |

====

Assay: yeast display, Sf9 membrane polyspecificity reagent, FACS + sequencing; frameworks hold sequencing errors
Experimental Endpoint: polyreactivity (PSR sort gate)

| Polymer Sequence | polyreactivity (PSR sort gate) |
| --- | --- |
| QVQLVESGGGLVQARGSLRLICAASGFTFYRYVMGWYRQAPGKVRELVAAITGRGGSTYYADSVKGRFTISRDNAKNTVYLQMNSRKPEDTAVYYCAARYVTGTLYLAPYEYWGQGTQVTLSS | low polyreactivity |
| QVQLVESRGALVQAGGSLRLSCAASGPIFDSYAMGWYRQATGKERELVATISRDSASTYYADSVKGRLTISRDNAKNTVYLQMNSLNPADTAVYYCSAGGSSSWAYNYWGHGTQVTVSS | low polyreactivity |
| QVQLVESGGGLVQAGGSLRLSCAASGSTFVGNAMGWYRQAPGKERELVAAISSDSSTYYADSVKGRFTISRDNAKNTVYLQMNSLKPEDTAVYYCAEYYPGYGYGYWGQGTQVTVSS | low polyreactivity |
| QVHLVESGVGLVQAGGSLRLSCAAYGYTFTRNAKGWSRQAPGKERELVAAISKRGGTTYYADSVKGRFTISRDNEKYSVYLQMNSLKPEDTAVYYCAKDGGITGGYWGQGTQVTVSS | high polyreactivity |
| QVQLVESGGGLVQAGGSLRLSCAASGSTFTNYAMGWYRQAPRKERELVAAITSVGSTYYADSVKGRFTISRDNAKNTVYLQMNSLKQEDTAVYYCNVVYRDQYNYWGQGTQVTVSS | low polyreactivity |
| QVQLVESGGGLVQAGGSLRLSCAASGSIFPENAMGWYRQAPGKERELVAAITSSDSSTYYADSVKGRFTISRDNAKNTVYLHMNSLKPEDTAVYSCAAYRVGFRFREYYWGQGTQVTVSS | low polyreactivity |
| QVQLLESGGGLVQAGGSLRLSCAASGRIFNYNAMGWYRQAPGKERELVAAISWDGGSTYYADSVKGRFTISRDNAKNTVYLQMNSLKPEDTAVYYCAARGGSRRFQSQAYSLPRYDYWGQGTQVTVSS | high polyreactivity |
| QVQLVESGGGLVQAGGSLRLSCAASGRTLVLYAMGWYRQAPGKERELVAAITWSGDSTYYADSVKGRFTISRDNAKNTVYLQMNSLKPEDTAVYYCAATYLNAKRGLRYDYWGQDTQVTVSS | low polyreactivity |

I'd like to know its polyreactivity (PSR sort gate). The sequence in question is QVQLVESGGGLVQAGGTLRLSCAASGSIFLINAMGWYRPAPGKERELVAAISRSGGRTYYADSVKGRFTISRDNAKNTVYLQMNSLKPEDTAVYYCAVPSIYYAGRAYDYWGQGTQVSVSS high polyreactivity

Look at this sequence and give its reported polyreactivity (PSR sort gate). QVQLVESGGGLVQAGGSLRLSCAASGSIFWYYAMGWYRQAPGKERELVARITYSSGSTYYADSVKGRFTISRDNAKNTVYLQMNSLKPEDTAVFYCAVRLYSYLYNPFNYWGQGTQVTVSS high polyreactivity

What value of measured polyreactivity (PSR sort gate) is listed for QVQLVESGGGLVQAGGSLRLSCAASGSTFYKYAMGGYRQAPGKERELVASITSGGRTYYADSEKGRFTISRDNAKNTVYLQMNSLKPDDTAVYYCAKRYGRLTRYDYWGQGTQVTVSS ? high polyreactivity
